Biological target: UniProtKB Q96EB6
Experiment: TAMRA based mass spectrometry assay of SIRT1 activity
Assay type: biochemical
Conditions: concentration of test compound giving 150% activation of SIRT1; TAMRA peptide substrate
measure.name: TAMRA EC1.5 (μM)

Sample records with TAMRA EC1.5 (μM):
# molecule, measure.name, result
rows = [
    ("Cc1nc2ccc(-c3ccccc3C(F)(F)F)nn2c1C(=O)Nc1cccc(N2CCOCC2)n1", "TAMRA EC1.5 (μM)", "A (EC1.5<1 μM)"),
    ("O=C(Nc1cccnc1)c1cnc2ccc(-c3c(F)cccc3Cl)nn12", "TAMRA EC1.5 (μM)", "C (EC1.5>25 μM)"),
    ("O=C(Nc1cnc2ccc(-c3ccccc3C(F)(F)F)nn12)c1ccncc1", "TAMRA EC1.5 (μM)", "C (EC1.5>25 μM)"),
    ("O=C(Nc1ccnc(N2CCC2)c1)c1cnc2ccc(-c3cncc(C(F)F)c3)nn12", "TAMRA EC1.5 (μM)", "B (EC1.5 1-25 μM)"),
    ("O=C(Nc1cnccn1)c1cnc2ccc(-c3cccc(Cl)c3F)nn12", "TAMRA EC1.5 (μM)", "B (EC1.5 1-25 μM)"),
    ("Cc1cc(-c2ccccc2C(F)(F)F)nn2c(C(=O)Nc3cccc(N4CCOCC4)n3)cnc12", "TAMRA EC1.5 (μM)", "A (EC1.5<1 μM)"),
    ("COc1cc(NC(=O)c2cnc3ccc(-c4ccccc4C(F)(F)F)nn23)nc(OC)n1", "TAMRA EC1.5 (μM)", "A (EC1.5<1 μM)"),
    ("COc1ccnc(NC(=O)c2cnc3ccc(-c4ccccc4C(F)(F)F)nn23)n1", "TAMRA EC1.5 (μM)", "A (EC1.5<1 μM)"),
]

stdin: Give the reported TAMRA EC1.5 (μM) for this molecule. `O=C(Nc1ccccn1)c1cnc2ccc(-c3cccc(Cl)c3F)nn12`
stdout: B (EC1.5 1-25 μM)

stdin: Give the reported TAMRA EC1.5 (μM) for this molecule. `O=C(Nc1cc(N2CCOCC2)ccn1)c1cnc2ccc(-c3ccccc3C(F)(F)F)nn12`
stdout: A (EC1.5<1 μM)

stdin: Give the reported TAMRA EC1.5 (μM) for this molecule. `Cc1csc(NC(=O)c2cnc3ccc(-c4ccccc4C(F)(F)F)nn23)n1`
stdout: A (EC1.5<1 μM)

stdin: Give the reported TAMRA EC1.5 (μM) for this molecule. `O=C(Nc1ccncn1)c1cnc2ccc(-c3cccc(C(F)(F)F)c3)nn12`
stdout: B (EC1.5 1-25 μM)

stdin: Give the reported TAMRA EC1.5 (μM) for this molecule. O=C(Nc1cc(OCC(O)CO)ccn1)c1cnc2ccc(-c3ccccc3C(F)(F)F)nn12 (stereo not shown)
stdout: B (EC1.5 1-25 μM)

stdin: Give the reported TAMRA EC1.5 (μM) for this molecule. `O=C(Nc1cccc(N2CCCC2)n1)c1cnc2ccc(-c3ccccc3C(F)(F)F)nn12`
stdout: A (EC1.5<1 μM)

stdin: Give the reported TAMRA EC1.5 (μM) for this molecule. `O=C(Nc1cnc2ccc(-c3ccccc3C(F)(F)F)nn12)c1cccnc1`
stdout: C (EC1.5>25 μM)

stdin: Give the reported TAMRA EC1.5 (μM) for this molecule. `O=C(Nc1cccc(N2CCOCC2)n1)c1cnc2ccc(-c3ccccc3Cl)nn12`
stdout: A (EC1.5<1 μM)

stdin: Give the reported TAMRA EC1.5 (μM) for this molecule. `O=C(Nc1ccncc1)c1cnc2ccc(-c3ccccc3F)nn12`
stdout: B (EC1.5 1-25 μM)

stdin: Give the reported TAMRA EC1.5 (μM) for this molecule. `O=C(Nc1cccnc1)c1cnc2ccc(-c3cccc(Cl)c3F)nn12`
stdout: C (EC1.5>25 μM)

stdin: Give the reported TAMRA EC1.5 (μM) for this molecule. O=C(Nc1cnc2ccc(-c3ccccc3C(F)(F)F)nn12)c1cccnc1OCC(O)CO (stereo not shown)
stdout: A (EC1.5<1 μM)

* * *

Target: SIRT1 (Homo sapiens)
Assay: TAMRA based mass spectrometry assay of SIRT1 activity
Type: biochemical
Conditions: TAMRA peptide substrate; percent maximum fold activation; read-out: TAMRA % Fold Act
measure.name: Emax

Sample records with Emax:
# compound, Emax
records = [
    ("O=C(Nc1cccnn1)c1cnn2ccc(-c3ccccc3C(F)(F)F)nc12", "≥ 350%"),
    ("O=C(Nc1cnn2ccc(-c3ccccc3OC(F)(F)F)nc12)c1ccncc1", "< 350%"),
    ("Cc1cc(NC(=O)c2c(C)nc3c(C)cc(-c4ccccc4OC(F)(F)F)nn23)ccn1", "≥ 350%"),
    ("Cc1nc2c(C)cc(-c3ccccc3C(F)(F)F)nn2c1C(=O)Nc1ccc(F)cn1", "≥ 350%"),
    ("COc1nccc(NC(=O)c2c(C)nc3ccc(-c4ccccc4OC(F)(F)F)nn23)n1", "≥ 350%"),
    ("Cc1cc(NC(=O)c2cnc3c(C)cc(-c4ccccc4C(F)(F)F)nn23)ccn1", "≥ 350%"),
]

stdin: Give Emax; test system SIRT1 (Homo sapiens); compound `Cc1cc(C)nc(C(=O)Nc2cnc3c(C)c(C)c(-c4ccccc4C(F)(F)F)nn23)n1`
stdout: ≥ 350%

* * *

Target: SIRT1 (Homo sapiens)
Sequence (Q96EB6 1-747): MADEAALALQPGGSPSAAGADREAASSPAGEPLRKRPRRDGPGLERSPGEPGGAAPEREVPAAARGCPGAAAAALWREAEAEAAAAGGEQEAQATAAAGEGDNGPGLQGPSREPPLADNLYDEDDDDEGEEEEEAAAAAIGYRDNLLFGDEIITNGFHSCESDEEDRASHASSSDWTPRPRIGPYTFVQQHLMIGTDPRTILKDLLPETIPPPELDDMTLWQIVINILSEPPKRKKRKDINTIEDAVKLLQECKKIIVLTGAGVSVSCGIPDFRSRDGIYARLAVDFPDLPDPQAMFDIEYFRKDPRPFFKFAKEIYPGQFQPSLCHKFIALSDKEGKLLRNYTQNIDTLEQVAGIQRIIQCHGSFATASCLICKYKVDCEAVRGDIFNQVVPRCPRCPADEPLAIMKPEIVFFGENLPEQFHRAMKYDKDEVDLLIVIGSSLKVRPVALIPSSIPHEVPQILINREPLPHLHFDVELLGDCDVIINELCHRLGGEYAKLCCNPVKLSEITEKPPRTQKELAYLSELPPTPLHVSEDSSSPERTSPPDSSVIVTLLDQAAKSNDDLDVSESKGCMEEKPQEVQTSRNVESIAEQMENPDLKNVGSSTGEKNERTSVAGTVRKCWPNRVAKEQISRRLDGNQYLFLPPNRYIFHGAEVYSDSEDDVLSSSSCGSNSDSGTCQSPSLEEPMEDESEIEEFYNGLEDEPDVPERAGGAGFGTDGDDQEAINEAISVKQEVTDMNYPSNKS
Test: TAMRA based mass spectrometry assay of SIRT1 activity
Assay type: biochemical
Details: TAMRA assay; concentration giving 150% activation of SIRT1
measure.name: TAMRA EC1.5 (μM)

Sample records with TAMRA EC1.5 (μM):
# molecule, target.desc, measure.name, result
records = [
    ("Cc1nc2ccc(-c3ccccc3OC[C@H](O)CO)nn2c1C(=O)Nc1ccccn1", "SIRT1 (Homo sapiens)", "TAMRA EC1.5 (μM)", "A (EC1.5<1 μM)"),
    ("O=C(Nc1cnc2ccc(-c3ccccc3OC(F)(F)F)nn12)c1cccc(N2CCOCC2)n1", "SIRT1 (Homo sapiens)", "TAMRA EC1.5 (μM)", "A (EC1.5<1 μM)"),
    ("COc1ccnc(NC(=O)c2c(C)nc3ccc(-c4ccccc4C(F)(F)F)nn23)c1", "SIRT1 (Homo sapiens)", "TAMRA EC1.5 (μM)", "A (EC1.5<1 μM)"),
    ("O=C(Nc1cnc2ccc(-c3ccccc3OC(F)(F)F)nn12)c1cccc(OCC(O)CO)n1 (centres unmarked)", "SIRT1 (Homo sapiens)", "TAMRA EC1.5 (μM)", "A (EC1.5<1 μM)"),
]

stdin: Give the reported TAMRA EC1.5 (μM) for this molecule. `Cc1nc2ccc(-c3ccccc3C(F)(F)F)nn2c1NC(=O)c1nccs1`
stdout: B (EC1.5 1-25 μM)

stdin: Give the reported TAMRA EC1.5 (μM) for this molecule. `N#Cc1ccccc1-c1ccc2ncc(NC(=O)c3cscn3)n2n1`
stdout: B (EC1.5 1-25 μM)

stdin: Give the reported TAMRA EC1.5 (μM) for this molecule. `O=C(Nc1ccccn1)c1c(O)nc2ccc(-c3ccccc3C(F)(F)F)nn12`
stdout: B (EC1.5 1-25 μM)

stdin: Give the reported TAMRA EC1.5 (μM) for this molecule. `Cc1cnc(NC(=O)c2cnn3ccc(-c4ccccc4OC(F)(F)F)nc23)s1`
stdout: B (EC1.5 1-25 μM)

stdin: Give the reported TAMRA EC1.5 (μM) for this molecule. `O=C(Nc1cccc(OCC(F)(F)F)n1)c1cnc2ccc(-c3ccccc3C(F)(F)F)nn12`
stdout: B (EC1.5 1-25 μM)

stdin: Give the reported TAMRA EC1.5 (μM) for this molecule. `Cc1nc2ccc(-c3ccccc3C(F)(F)F)nn2c1NC(=O)c1ncccn1`
stdout: B (EC1.5 1-25 μM)
